- Assay name: Apparent permeability from apical to basolateral side in human Caco2 cells
- Type: ADME, cell-based
- Condition parameters: Caco-2
Papp A→B overview
Readout kind: Papp A→B (×10⁻⁶ cm/s)

- Smiles: "COc1cnc2ccc(=O)n(CCN3CC[C@@H](NCc4ccc5c(n4)NC(=O)CO5)[C@@H](F)C3)c2c1"
  Readout kind: "Papp A→B"
  Experimental result: 4.1
- Smiles: "COc1cnc2ccc(=O)n(CCN3CCC(NCc4cnc(OC)c(C#N)c4)CC3)c2c1"
  Readout kind: "Papp A→B"
  Experimental result: 13
- Smiles: "COc1ccc2ccc(=O)n(CCN3CCC(NCc4ccc5c(n4)NC(=O)CO5)CC3)c2n1"
  Readout kind: "Papp A→B"
  Experimental result: 1.1
- Smiles: "N#Cc1ccc2ccc(=O)n(CCN3CCC(NCc4ccc5c(n4)NC(=O)CO5)CC3)c2c1"
  Readout kind: "Papp A→B"
  Experimental result: 2
- Smiles: "Cc1ncc(CN[C@@H]2CCN(CCn3c(=O)ccc4ncc(F)cc43)C[C@@H]2F)cc1C#N"
  Readout kind: "Papp A→B"
  Experimental result: 17.7

* * *

Papp B→A overview
- Assay name: Apparent permeability from basolateral to apical side in human Caco2 cells
- Assay type: ADME, cell-based
- Condition parameters: Caco-2
Readout kind: Papp B→A

- Smiles: "COc1cnc2ccc(=O)n(CCN3CCC(NCc4cnc(C)c(C#N)c4)CC3)c2c1"
  Experimental result: "8.3 ×10⁻⁶ cm/s"
- Smiles: "N#Cc1ccc2ccc(=O)n(CCN3CCC(NCc4cc5c(cn4)OCCO5)CC3)c2c1"
  Experimental result: "38.3 ×10⁻⁶ cm/s"
- Smiles: "COc1cnc2ccc(=O)n(CCN3CC[C@@H](NCc4cnc(C)c(C#N)c4)[C@@H](OC)C3)c2c1"
  Experimental result: "9.9 ×10⁻⁶ cm/s"
- Smiles: "Cc1ncc(CNC2CCN(CCn3c(=O)ccc4ncc(F)cc43)CC2)cc1C#N"
  Experimental result: "9.8 ×10⁻⁶ cm/s"
- Smiles: "COc1cnc2ccc(=O)n(CCN3CC[C@@H](NCc4ccc5c(n4)NC(=O)CO5)[C@@H](F)C3)c2c1"
  Experimental result: "10.8 ×10⁻⁶ cm/s"
- Smiles: "Cc1ncc(CN[C@@H]2CCN(CCn3c(=O)ccc4ccc(C#N)cc43)C[C@@H]2F)cc1C#N"
  Experimental result: "13 ×10⁻⁶ cm/s"
- Smiles: "Cc1ncc(CN[C@@H]2CCN(CCn3c(=O)ccc4ncc(F)cc43)C[C@@H]2F)cc1C#N"
  Experimental result: "15.4 ×10⁻⁶ cm/s"
- Smiles: "N#Cc1ccc2ccc(=O)n(CCN3CCC(NCc4ccc5c(n4)NC(=O)CO5)CC3)c2c1"
  Experimental result: "12.6 ×10⁻⁶ cm/s"
- Smiles: "O=C1COc2ccc(CN[C@@H]3CCN(CCn4c(=O)ccc5ncc(F)cc54)C[C@@H]3F)nc2N1"
  Experimental result: "11.2 ×10⁻⁶ cm/s"
- Smiles: "Cc1nc(CNC2CCN(CCn3c(=O)ccc4ccc(C#N)cc43)CC2)ccc1C#N"
  Experimental result: "9.1 ×10⁻⁶ cm/s"
- Smiles: "COc1cc(C#N)c2ccc(=O)n(CCN3CCC(NCc4cnc(C)c(C#N)c4)CC3)c2c1"
  Experimental result: "4.7 ×10⁻⁶ cm/s"
- Smiles: "O=C1COc2ccc(CN[C@H]3CCN(CCn4c(=O)ccc5ncc(F)cc54)C[C@H]3F)nc2N1"
  Experimental result: "12.3 ×10⁻⁶ cm/s"
- Smiles: "COc1ccc2ccc(=O)n(CCN3CCC(NCc4ccc5c(n4)NC(=O)CO5)CC3)c2n1"
  Experimental result: "25 ×10⁻⁶ cm/s"
- Smiles: "Cc1ncc(CNC2CCN(CCn3c(=O)ccc4ccc(C#N)cc43)CC2)cc1C#N"
  Experimental result: "7.4 ×10⁻⁶ cm/s"
- Smiles: "COc1cnc2ccc(=O)n(CCN3CCC(NC(=O)c4cnc(C)c(C#N)c4)CC3)c2c1"
  Experimental result: "13 ×10⁻⁶ cm/s"
- Smiles: "COc1cnc2ccc(=O)n(CCN3CCC(NCc4cnc(OC)c(C#N)c4)CC3)c2c1"
  Experimental result: "9 ×10⁻⁶ cm/s"
- Smiles: "COc1cnc2ccc(=O)n(CCN3CC[C@H](NCc4ccc5c(n4)NC(=O)CO5)[C@H](F)C3)c2c1"
  Experimental result: "12.7 ×10⁻⁶ cm/s"
- Smiles: "COc1cnc2ccc(=O)n(CCN3CC[C@@H](NCc4cnc(C)c(C#N)c4)[C@@H](F)C3)c2c1"
  Experimental result: "7.4 ×10⁻⁶ cm/s"
